# ASSAY_PROCEDURE: Acute toxicity in mice after intravenous administration
# SETTINGS: mouse, in vivo
*1 amine or outer side, *2 acyl side, *3 side chain or, on linkers, in order; H or OH if unused. Where a SMILES comes first, the peptide text is derived from it. Bridges are numbered along the chain shown (N, C = ends). [ ]: non-standard residue; d: D form. The star is where a group is joined. ξ: configuration not given here. ξOrn(4R-OH,5R-OH) = O=C(C(C[C@@H](O)[C@@H](O)N[*:3])N[*:1])[*:2]; hTyr(3S-OH,4S-OH) = N[C@H](C(=O)O)[C@H](O)[C@@H](O)c1ccc(O)cc1; Orn(3R-OH) = NCC[C@@H](O)[C@H](N)C(=O)O; X2 = O=C(C1CN([*:1])C[C@@H]1O)[*:2]; ξPro(4R-OH) = O=C(O)C1C[C@@H](O)CN1; X1 = CCC(C)CC(C)CCCCCCCCC(=O)*
READOUT_LABEL: Dose (mg/kg)
Enter your answer as a number in mg/kg; do not include the unit.

Task item: // lookup Dose for CCC(C)CC(C)CCCCCCCCC(=O)NC1C[C@@H](O)[C@@H](O)NC(=O)C2CN(C[C@@H]2O)C(=O)[C@H]([C@H](O)CCNC(=O)CCCCN)NC(=O)[C@H]([C@H](O)[C@@H](O)c2ccc(O)cc2)NC(=O)C2C[C@@H](O)CN2C(=O)[C@H]([C@@H](C)O)NC1=O (some centres not stated)
Reply: 250

Task item: // lookup Dose for CCC(C)CC(C)CCCCCCCCC(=O)NC1C[C@@H](O)[C@@H](O)NC(=O)C2CN(C[C@@H]2O)C(=O)[C@H]([C@H](O)CCN)NC(=O)[C@H]([C@H](O)[C@@H](O)c2ccc(O)cc2)NC(=O)C2C[C@@H](O)CN2C(=O)[C@H]([C@@H](C)O)NC1=O (stereo partly drawn) (X1-[ξOrn(4R-OH,5R-OH)]T[ξPro(4R-OH)][hTyr(3S-OH,4S-OH)][Orn(3R-OH)][X2]; lactam 1-C)
Reply: 100

Task item: // lookup Dose for CCC(C)CC(C)CCCCCCCCC(=O)NC1C[C@@H](O)[C@@H](O)NC(=O)C2CN(C[C@@H]2O)C(=O)[C@H]([C@H](O)CCNC(=O)CN)NC(=O)[C@H]([C@H](O)[C@@H](O)c2ccc(O)cc2)NC(=O)C2C[C@@H](O)CN2C(=O)[C@H]([C@@H](C)O)NC1=O (some centres not stated)
Reply: 250

Task item: // lookup Dose for CCC(C)CC(C)CCCCCCCCC(=O)NC1C[C@@H](O)[C@@H](OCCN)NC(=O)C2CN(C[C@@H]2O)C(=O)[C@H]([C@H](O)CCN)NC(=O)[C@H]([C@H](O)[C@@H](O)c2ccc(O)cc2)NC(=O)C2C[C@@H](O)CN2C(=O)[C@H]([C@@H](C)O)NC1=O (some centres not stated)
Reply: 30

----------
# Species on record: Mus musculus
# ASSAY_PROCEDURE: Percentage of mice with complete eradication of candida in kidneys
# Format: functional, Kidney
*1 amine or outer side, *2 acyl side, *3 side chain or, on linkers, in order; H or OH if unused. Where a SMILES comes first, the peptide text is derived from it. Bridges are numbered along the chain shown (N, C = ends). [ ]: non-standard residue; d: D form. The star is where a group is joined. ξ: configuration not given here. ξOrn(4R-OH,5R-OH) = O=C(C(C[C@@H](O)[C@@H](O)N[*:3])N[*:1])[*:2]; hTyr(3S-OH,4S-OH) = N[C@H](C(=O)O)[C@H](O)[C@@H](O)c1ccc(O)cc1; Orn(3R-OH) = NCC[C@@H](O)[C@H](N)C(=O)O; X2 = O=C(C1CN([*:1])C[C@@H]1O)[*:2]; ξPro(4R-OH) = O=C(O)C1C[C@@H](O)CN1; X1 = CCC(C)CC(C)CCCCCCCCC(=O)*
READOUT_LABEL: Sterilized

Task item: // lookup Sterilized for CCC(C)CC(C)CCCCCCCCC(=O)NC1C[C@@H](O)[C@@H](OCCN)NC(=O)C2CN(C[C@@H]2O)C(=O)[C@H]([C@H](O)CCNC(=O)[C@@H](N)CCCCN)NC(=O)[C@H]([C@H](O)[C@@H](O)c2ccc(O)cc2)NC(=O)C2C[C@@H](O)CN2C(=O)[C@H]([C@@H](C)O)NC1=O (stereo partly drawn)
Reply: 0%

Task item: // lookup Sterilized for CCC(C)CC(C)CCCCCCCCC(=O)NC1C[C@@H](O)[C@@H](O)NC(=O)C2CN(C[C@@H]2O)C(=O)[C@H]([C@H](O)CCNC(=O)[C@@H](N)CCCCN)NC(=O)[C@H]([C@H](O)[C@@H](O)c2ccc(O)cc2)NC(=O)C2C[C@@H](O)CN2C(=O)[C@H]([C@@H](C)O)NC1=O (stereo partly drawn)
Reply: 20%

Task item: // lookup Sterilized for CCC(C)CC(C)CCCCCCCCC(=O)NC1C[C@@H](O)[C@@H](O)NC(=O)C2CN(C[C@@H]2O)C(=O)[C@H]([C@H](O)CCN)NC(=O)[C@H]([C@H](O)[C@@H](O)c2ccc(O)cc2)NC(=O)C2C[C@@H](O)CN2C(=O)[C@H]([C@@H](C)O)NC1=O (stereo partly drawn) (X1-[ξOrn(4R-OH,5R-OH)]T[ξPro(4R-OH)][hTyr(3S-OH,4S-OH)][Orn(3R-OH)][X2]; lactam 1-C)
Reply: 70%

----------
Field: Dose. Provide a value for each of the molecules that follow.
# ASSAY_PROCEDURE: Acute toxicity in mice after intravenous administration
# SETTINGS: mouse, in vivo

Task item: // lookup Dose for CCC(C)CC(C)CCCCCCCCC(=O)NC1C[C@@H](O)[C@@H](O)NC(=O)C2CN(C[C@@H]2O)C(=O)[C@H]([C@H](O)CCNC(=O)[C@@H](N)CN)NC(=O)[C@H]([C@H](O)[C@@H](O)c2ccc(O)cc2)NC(=O)C2C[C@@H](O)CN2C(=O)[C@H]([C@@H](C)O)NC1=O (stereo partly drawn)
Reply: > 250 mg/kg

Task item: // lookup Dose for CCC(C)CC(C)CCCCCCCCC(=O)NC1C[C@@H](O)[C@@H](O)NC(=O)C2CN(C[C@@H]2O)C(=O)[C@H]([C@H](O)CCNC(C)=O)NC(=O)[C@H]([C@H](O)[C@@H](O)c2ccc(O)cc2)NC(=O)C2C[C@@H](O)CN2C(=O)[C@H]([C@@H](C)O)NC1=O (stereo partly drawn)
Reply: > 250 mg/kg

Task item: // lookup Dose for CCC(C)CC(C)CCCCCCCCC(=O)NC1C[C@@H](O)[C@@H](O)NC(=O)C2CN(C[C@@H]2O)C(=O)[C@H]([C@H](O)CCNC(=O)[C@@H](N)CCCN)NC(=O)[C@H]([C@H](O)[C@@H](O)c2ccc(O)cc2)NC(=O)C2C[C@@H](O)CN2C(=O)[C@H]([C@@H](C)O)NC1=O (stereo partly drawn)
Reply: > 200 mg/kg
